Reference source: patent US20120251547A1

# Target Or Test System: T1, huIL-17RA-FLAG-polyHis (human, UniProt Q96F46 33-320)
# T1 construct: also called IL-17RA-FLAG-pHis; wild-type IL-17RA
# Procedure Details: binning; IL-17RA held by bead mAb E
What normalized MFI was measured for each of the following?

Requested field: normalized MFI. Item: AMH21/AML21 (antibody, IgG2, V domains shown, human mAb from IgG2 XenoMouse mice; also called AM-21; antibody Q) VH: EVQLVESGGGSVQPGGSLRLSCAASGFTFSSYSMNWVRQAPGKGLEWVSIISSRSSIIHYADSVKGRFTISRDNAKNSLYLQMNSLRDEDTAVYYCARPKVGGGMDVWGQGTTVTVSS VL: DIQMTQSPSSLSASVGDRVTITCRASQGISNYLAWYQQKPGKFPELLIYAASTLQSGVPSRFSGSGSGTDFTLTISSLQPEDVATYYCQKYNRAPFTFGPGTKVDIK
1170

What about AMH12/AML12 (antibody, IgG2, V domains shown, human mAb from IgG2 XenoMouse mice; also called AM-12; antibody M) VH: QVQLVQSGAEVKKPGASVKVSCKASGYTLTSYGISWVRQAPGQGLEWMGWISTYKGNTNYAQKLQGRVTMTTDTSTSTAYMELRSLRSDDTAVYYCARKQLVFDYWGQGTLVTVSS VL: EIVMTQSPATLSVSPGERATLSCRASQSISSSLAWYQQKPGQAPRLLIYGASTRATGIPARFSGSGSGTEFTLTISSLQSENFAVYYCQQYDNWPLTFGGGTKVEIK ?
765
